Sourced from paper doi:10.1101/2022.12.28.522074v1

# Target entity: MetRS M547 (His-tagged monomeric E. coli MetRS) (Escherichia coli, UniProt P00959, I298C/L14M)
# Construct: gene metG; M547: C-terminally truncated monomeric fragment (about 547 residues), His-tagged, pET15blpa, expressed in E. coli BLR(DE3)
# Sequence (P00959 2-548 L14M/I298C): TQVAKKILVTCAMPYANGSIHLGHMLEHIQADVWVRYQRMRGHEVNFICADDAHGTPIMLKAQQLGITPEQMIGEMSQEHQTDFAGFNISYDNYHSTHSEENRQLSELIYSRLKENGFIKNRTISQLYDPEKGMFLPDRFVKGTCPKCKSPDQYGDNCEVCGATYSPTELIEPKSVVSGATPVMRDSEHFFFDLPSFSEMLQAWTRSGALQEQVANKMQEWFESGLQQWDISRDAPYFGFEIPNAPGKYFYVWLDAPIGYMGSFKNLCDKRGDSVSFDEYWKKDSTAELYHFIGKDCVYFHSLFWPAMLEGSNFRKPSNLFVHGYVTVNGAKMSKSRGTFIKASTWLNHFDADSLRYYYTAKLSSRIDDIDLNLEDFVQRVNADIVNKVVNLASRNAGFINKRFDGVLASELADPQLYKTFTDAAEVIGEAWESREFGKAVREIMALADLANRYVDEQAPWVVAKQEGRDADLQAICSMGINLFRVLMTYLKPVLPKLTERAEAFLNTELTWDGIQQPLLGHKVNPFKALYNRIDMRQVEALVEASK
# Assay remarks: intrinsic fluorescence titration at equilibrium
# Assay type: binding
# Condition details: read-out: Kd(α-Met)

| Compound | Unit label | Kd |
| --- | --- | --- |
| CSCC[C@H](N)C(=O)O [α-Met] | µM | 160 |

----------
# Target entity: MetRS M547 (His-tagged monomeric E. coli MetRS) (Escherichia coli, UniProt P00959, I298C/L14M)
# Construct: gene metG; M547: C-terminally truncated monomeric fragment (about 547 residues), His-tagged, pET15blpa, expressed in E. coli BLR(DE3)
# Assay remarks: intrinsic fluorescence titration at equilibrium
# Assay type: binding
# Condition details: read-out: Kd(β-Met)
pKd: −log10 of the molar value.

| Molecule | pKd |
| --- | --- |
| CSCC[C@H](N)CC(=O)O [β-Met] | 3.05 |

----------
# Target entity: MetRS M547 (His-tagged monomeric E. coli MetRS) (Escherichia coli)
# Construct: gene metG; M547: C-terminally truncated monomeric fragment (about 547 residues), His-tagged, pET15blpa, expressed in E. coli BLR(DE3)
# Assay remarks: intrinsic fluorescence titration at equilibrium
# Type: binding
# Condition details: read-out: Kd(β-Met)
pKd: −log10 of the molar value.

| Compound | Target entity | pKd |
| --- | --- | --- |
| CSCC[C@H](N)CC(=O)O [β-Met] | MetRS M547 (His-tagged monomeric E. coli MetRS) (Escherichia coli) | 2.92 |

----------
# Target entity: MetRS M547 (His-tagged monomeric E. coli MetRS) (Escherichia coli, UniProt P00959, I298C/L14S)
# Construct: gene metG; M547: C-terminally truncated monomeric fragment (about 547 residues), His-tagged, pET15blpa, expressed in E. coli BLR(DE3)
# Sequence (P00959 2-548 L14S/I298C): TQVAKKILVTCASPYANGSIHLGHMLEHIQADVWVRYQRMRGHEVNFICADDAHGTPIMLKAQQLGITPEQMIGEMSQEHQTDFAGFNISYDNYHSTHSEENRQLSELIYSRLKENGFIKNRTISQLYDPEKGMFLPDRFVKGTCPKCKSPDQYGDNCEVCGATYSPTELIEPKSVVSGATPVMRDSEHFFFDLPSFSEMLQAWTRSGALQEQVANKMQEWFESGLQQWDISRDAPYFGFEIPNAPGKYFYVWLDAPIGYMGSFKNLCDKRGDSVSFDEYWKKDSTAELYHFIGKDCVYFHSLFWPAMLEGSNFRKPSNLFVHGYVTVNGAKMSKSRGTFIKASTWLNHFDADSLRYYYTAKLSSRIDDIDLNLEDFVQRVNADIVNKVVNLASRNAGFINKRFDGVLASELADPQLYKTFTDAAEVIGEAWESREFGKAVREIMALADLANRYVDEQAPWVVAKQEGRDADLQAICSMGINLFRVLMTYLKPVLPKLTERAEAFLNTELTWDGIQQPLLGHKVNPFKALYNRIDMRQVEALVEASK
# Assay remarks: intrinsic fluorescence titration at equilibrium
# Type: binding
# Condition details: read-out: Kd(α-Met)
pKd: −log10 of the molar value.

| Given smiles | pKd |
| --- | --- |
| CSCC[C@H](N)C(=O)O | 3.77 |
